Molecular target: T1, mfNPR1-mFc (monkey)
T1 construct: also called dimeric monkey NPR1
T1 chain: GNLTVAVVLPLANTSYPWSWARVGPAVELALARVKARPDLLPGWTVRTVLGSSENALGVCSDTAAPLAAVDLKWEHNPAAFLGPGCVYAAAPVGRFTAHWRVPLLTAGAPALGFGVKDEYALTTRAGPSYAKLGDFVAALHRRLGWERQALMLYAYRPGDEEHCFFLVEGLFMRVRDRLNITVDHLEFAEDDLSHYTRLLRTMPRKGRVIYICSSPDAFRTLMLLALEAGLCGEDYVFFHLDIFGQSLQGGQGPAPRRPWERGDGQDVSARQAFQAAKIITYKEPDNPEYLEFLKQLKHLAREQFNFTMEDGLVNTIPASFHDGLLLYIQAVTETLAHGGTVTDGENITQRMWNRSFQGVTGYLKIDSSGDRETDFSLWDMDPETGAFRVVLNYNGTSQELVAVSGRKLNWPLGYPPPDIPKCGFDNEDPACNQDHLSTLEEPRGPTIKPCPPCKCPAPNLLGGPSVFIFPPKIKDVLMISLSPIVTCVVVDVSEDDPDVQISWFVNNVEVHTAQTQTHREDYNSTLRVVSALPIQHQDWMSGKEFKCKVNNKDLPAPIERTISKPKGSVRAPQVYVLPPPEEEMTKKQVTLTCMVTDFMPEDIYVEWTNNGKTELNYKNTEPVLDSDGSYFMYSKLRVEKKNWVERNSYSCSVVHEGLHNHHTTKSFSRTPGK
Test: SPR, mAb captured, 25C
Quantity measured: koff (s⁻¹)
Provide the reading as a plain figure in s⁻¹.

Which koff reading was recorded for the binder mAb25479 (antibody, human IgG4, V domains shown) VH: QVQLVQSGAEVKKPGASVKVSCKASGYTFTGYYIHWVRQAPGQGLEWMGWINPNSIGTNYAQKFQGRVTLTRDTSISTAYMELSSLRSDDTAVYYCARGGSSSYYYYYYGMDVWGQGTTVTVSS VL: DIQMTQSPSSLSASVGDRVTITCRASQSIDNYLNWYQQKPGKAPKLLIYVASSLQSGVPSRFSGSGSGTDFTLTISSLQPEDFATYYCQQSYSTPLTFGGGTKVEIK ?
0.000507
